# credit: patent US10711001B2

assay: Stability constants of the yttrium complexes by potentiometry; format: physicochemical; details: Y^3+; direct potentiometric titration, 25° C., I=0.1 M KNO3
observed property: log KMHiL [ML]/[M][L] (log KYL)
// print number alone

Consider the worked cases shown below.
1. O=C([O-])c1cccc(CN2CCN(Cc3cccc(C(=O)[O-])n3)Cc3cccc(n3)CN(Cc3cccc(C(=O)[O-])n3)CC2)n1.[Y+3]	16.42
2. O=C(O)CN1CCN(Cc2cccc(C(=O)O)n2)CCN(Cc2cccc(C(=O)O)n2)Cc2cccc(n2)C1	19.49
3. O=C(O)CN1CCN(Cc2cccc(C(=O)O)n2)CCN(CC(=O)O)Cc2cccc(n2)C1	19.28

Incoming: Query: log KMHiL [ML]/[M][L] (log KYL); subject: "O=C(O)CN1CCN(Cc2cccc(C(=O)O)n2)Cc2cccc(n2)CN(Cc2cccc(C(=O)O)n2)CC1"
Outgoing: 19.78
